Source: PubChem BioAssay (Tox21)

Target: Androgen receptor (Homo sapiens)
Experiment: qHTS assay to identify small molecule agonists of the androgen receptor (AR) signaling pathway (AID 743036)
Details: HEK293 AR-UAS-bla GripTite, beta-lactamase FRET ratio, 16 h; series mostly up to 62.4 µM
Results filed as inconclusive are left out. The source made the active and inactive calls. The call rests on the fitted dose curve; in most records, active means well fitted activation curve with a large enough effect in the signal ratio in the repeat runs, with a control signal flat (not every such curve was filed as active); inconclusive means weak or mixed curves, or effect the other way; inactive means no such curve, though single readings can be large or run the other way; the % refers to the signal ratio. Positions of bridges follow the written chain, without caps; N, C: chain ends. Non-standard residues stand in square brackets, D forms with d. Residues, ends and D or L forms follow the SMILES beside them. pGlu = O=C1CC[C@@H](C(=O)O)N1; Orn = NCCC[C@H](N)C(=O)O; Thz = O=C(O)[C@@H]1CSCN1; Mpa = O=C(O)CCS
A correct response names exactly one class from active, inactive

Exam item: Recorded test outcome, item CC(=O)OCC(=O)[C@@]1(O)[C@H](C)C[C@H]2[C@@H]3C[C@H](F)C4=CC(=O)C=C[C@]4(C)[C@H]3[C@@H](O)C[C@@]21C
Marked response: active

Exam item: Test call, this molecule: CC(C)CCCC(C)NC(C)C (configuration not stated)
Marked response: inactive

Exam item: What was the test verdict on COC(=O)C1=C(C)NC(C)=C(C(=O)O[C@H]2CCN(Cc3ccccc3)C2)[C@H]1c1cccc([N+](=O)[O-])c1 ?
Marked response: inactive

Exam item: Please share the test call associated with O=C(O)CCC/C=C\C[C@@H]1[C@@H](/C=C/[C@@H](O)COc2cccc(Cl)c2)[C@H](O)C[C@@H]1O .
Marked response: inactive

Exam item: What outcome does the record of this test show for CCOC(=O)COc1ccc2c(C)c(CCN(CC)CC)c(=O)oc2c1 ?
Marked response: inactive

Exam item: Identify the outcome logged in this assay for the molecule shown: O=S(=O)(O)c1cc(O)c2c(N=Nc3ccc(Nc4ccccc4)c4c(S(=O)(=O)O)cccc34)cc(S(=O)(=O)O)cc2c1
Marked response: inactive

Exam item: Short answer needed: outcome of this test for COc1cc(/C=C/C(=O)N2CCN(CC(=O)N3CCCC3)CC2)cc(OC)c1OC ?
Marked response: inactive

Exam item: I'd appreciate the recorded outcome for CCCCCCCCCCCCCCCC(=O)OC[C@@H](COP(=O)([O-])OCC[N+](C)(C)C)OC(=O)CCCCCCCCCCCCCCC from this test.
Marked response: inactive

Exam item: Which outcome did this test record for the molecule O=C(Cc1cccs1)N[C@@H]1C(=O)N2C(C(=O)[O-])=C(C[n+]3ccccc3)CS[C@H]12 ?
Marked response: inactive

Exam item: Dear all, I need the recorded test outcome for CO/N=C(\C(=O)N[C@@H]1C(=O)N2C(C(=O)O)=C(CSC(=O)c3ccco3)CS[C@H]12)c1csc(N)n1 , thank you.
Marked response: inactive

Exam item: Which outcome did this test record for the molecule Nc1c(Br)cc(Br)cc1CNC1CCC(O)CC1 (configuration not stated) ?
Marked response: active

Exam item: Identify the outcome logged in this assay for the molecule shown: O=C(O)CC/C=C\CC[C@@H]1[C@@H](N2CCCCC2)[C@@H](O)C[C@@H]1OCc1ccc(-c2ccccc2)cc1
Marked response: inactive

Exam item: Check the results log: what was the call for N[C@@H](C(=O)N[C@@H]1C(=O)N2C(C(=O)O)=C(CSc3cn[nH]n3)CS[C@H]12)c1ccc(O)cc1 ?
Marked response: inactive

Exam item: What was the test verdict on CC1=C[C@H](O)CC(C)(C)[C@H]1/C=C/C(C)=C/C=C/C(C)=C/C=C/C=C(C)/C=C/C=C(C)/C=C/C1=C(C)C[C@@H](O)CC1(C)C ?
Marked response: inactive

Exam item: Kindly provide the recorded test outcome for the following molecule: CC(CN1c2ccccc2Sc2ccc(S(=O)(=O)N(C)C)cc21)N(C)C (configuration not stated)
Marked response: inactive

Exam item: Given O=C1CC[C@@H](C(=O)N2CSC[C@H]2C(=O)O)N1 ([pGlu]-[Thz]-OH) , state the outcome it received in this test.
Marked response: inactive

Exam item: How did this test come out for O=C(O)c1c(Cl)c(Cl)c(Cl)c(Cl)c1-c1c2cc(I)c(=O)c(I)c-2oc2c(I)c(O)c(I)cc12 ?
Marked response: inactive

Exam item: Fill in: this test's call for C[C@]12CC[C@@H]3c4ccc(OC(=O)c5ccccc5)cc4CC[C@H]3[C@@H]1CC[C@@H]2O is ___
Marked response: active

Exam item: I would be grateful if you could indicate the recorded call for CS(=O)(=O)OCC(O)C(O)COS(C)(=O)=O (configuration not stated) .
Marked response: inactive

Exam item: I would be grateful if you could indicate the recorded call for CCOC(=O)CCC(=O)O[C@H]1[C@H](O[C@@H]2[C@@H](C)[C@H](O[C@H]3C[C@@](C)(OC)[C@@H](O)[C@H](C)O3)[C@@H](C)C(=O)O[C@H](CC)[C@@](C)(O)[C@H](O)[C@@H](C)C(=O)[C@H](C)C[C@@]2(C)O)O[C@H](C)C[C@@H]1N(C)C .
Marked response: inactive

Exam item: # fetch the recorded call for Cc1cccc(C)c1N(CCCc1cccnc1)C(=O)C(C)N (configuration not stated) here
Marked response: inactive

Exam item: So what was the verdict on CCN(CC)c1ccc(N=Nc2ccc(S(=O)(=O)N(C)C)cc2)c(S(=O)(=O)NCC[n+]2ccccc2)c1 in this test?
Marked response: inactive

Exam item: Called result for OCCN1CCN(CC/C=C2/c3ccccc3Sc3ccc(Cl)cc32)CC1
Marked response: inactive

Exam item: Lab log entry: CN(C)CCCN1c2ccccc2C(C)(C)c2ccccc21 — outcome as called in the assay?
Marked response: inactive

Exam item: Could you check what this test reported for CCCCCCCCCCCCOCCCN ?
Marked response: inactive

Exam item: Name the outcome recorded for C#C[C@]1(O)CC[C@H]2[C@@H]3CCC4=C/C(=N/O)CC[C@@H]4[C@H]3CC[C@@]21CC in the assay.
Marked response: active

Exam item: Tell me the recorded outcome of this test for CC(=O)O[C@H]1C[C@@]2(C)[C@@H](C[C@@H](O)[C@H]3[C@@]4(C)CC[C@@H](O)[C@@H](C)[C@@H]4CC[C@@]32C)/C1=C(\CCC=C(C)C)C(=O)O .
Marked response: inactive

Exam item: Hello, I am checking results. What call was entered for CN1CCC(CN2c3ccccc3Sc3ccccc32)C1 (configuration not stated) ?
Marked response: inactive

Exam item: Returns: the outcome recorded for CCCCCCCCCCCCCCCCCCCCCC(=O)Nc1ccn([C@@H]2O[C@H](CO)[C@@H](O)[C@@H]2O)c(=O)n1 in this assay.
Marked response: inactive

Exam item: Entry CN(C)CC/C=C1/c2ccccc2CSc2ccccc21 : call = ?
Marked response: inactive

Exam item: What was the test verdict on CCOc1ccc(C[C@H]2NC(=O)CCSSC[C@@H](C(=O)N3CCC[C@H]3C(=O)N[C@@H](CCCN)C(=O)NCC(N)=O)NC(=O)[C@H](CC(N)=O)NC(=O)[C@H]([C@@H](C)O)NC(=O)[C@H]([C@@H](C)CC)NC2=O)cc1 ([Mpa][dY](Et)ITNCP[Orn]G-NH2; disulfide 1-6) ?
Marked response: inactive

Exam item: Any idea what this test logged for C=CC[C@@H]1/C=C(\C)C[C@H](C)C[C@H](OC)[C@H]2O[C@@](O)(C(=O)C(=O)N3CCCC[C@H]3C(=O)O[C@H](/C(C)=C/[C@@H]3CC[C@@H](O)[C@H](OC)C3)[C@H](C)[C@@H](O)CC1=O)[C@H](C)C[C@@H]2OC ?
Marked response: inactive

----------
Assay: qHTS assay to identify small molecule antagonists of the estrogen receptor alpha (ER-alpha) signaling pathway using the BG1 cell line - cell viability counter screen (AID 743081);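 further: compound given together with 17beta-estradiol as the ER stimulus; nearly all actives have a fitted effect of over 45% in size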; further: potency means the concentration at half of the fitted maximal effect
Conditions: BG1Luc4E2 viability, CellTiter-Fluor, 22 h; series mostly up to 70.3 µM
Results filed as inconclusive are left out. Calls of active or inactive are those of the source. Calls come from the whole dose curve; as a rule, active = well fitted cell-killing curve with a large enough effect in the repeat runs; inconclusive = weak or mixed curves, or effect the other way; inactive = flat fitted curve, though single readings scatter.
observable: Potency

| compound | result |
| --- | --- |
| CC(C)CN(C[C@@H](OP(=O)(O)O)[C@H](Cc1ccccc1)NC(=O)O[C@H]1CCOC1)S(=O)(=O)c1ccc(N)cc1 | inactive |
| OC[C@H]1O[C@@H](O[C@H]2[C@H](O)[C@@H](O)[C@H](O)O[C@@H]2CO)[C@H](O)[C@@H](O)[C@@H]1O | inactive |
| CCCCCCCCCCCC(=O)OC[C@@H](O)C1OC[C@H](O)[C@H]1O (some centres not stated) | inactive |
| COc1ccc(CC2c3cc(OC)c(OC)cc3CC[N+]2(C)CCC(=O)OCCCCCOC(=O)CC[N+]2(C)CCc3cc(OC)c(OC)cc3C2Cc2ccc(OC)c(OC)c2)cc1OC (configuration not stated) | inactive |
| CC(=O)O[C@H]1C[C@@]2(C)[C@@H](C[C@@H](O)[C@H]3[C@@]4(C)CC[C@@H](O)[C@@H](C)[C@@H]4CC[C@@]32C)/C1=C(\CCC=C(C)C)C(=O)O | inactive |

Exam item: Form field: reported Potency of CCC(c1ccccc1)c1noc(CCN(CC)CC)n1 (configuration not stated)
Marked response: inactive

Exam item: Which Potency is reported for this compound? CCC(=O)NCCC1CCc2ccc3c(c21)CCO3 (configuration not stated)
Marked response: inactive

Exam item: # Potency lookup, item C=CC1=C(C)C2=CC3=NC(=C(CC(=O)[O-])C4=NC(=C(C)C4=C([O-])[O-])C=c4[n-]c(c(C)c4CC)=CC1=N2)C(CCC(=O)[O-])C3C.[Cu+2].[Na+].[Na+].[Na+] (configuration not stated)
Marked response: 29.8 µM (active)

Exam item: Can you look up the measured Potency of CC(=O)N[C@@H](C=O)[C@@H](O)[C@H](O)[C@H](O)CO for me?
Marked response: inactive

Exam item: Name the reported Potency value associated with the compound O=C(O)[C@H]1/C(=C/CO)O[C@@H]2CC(=O)N21
Marked response: inactive
